assay: 384-well plate pilot, post-Golgi transport modulator project, inhibition of yeast transport mutant growth (AID 636); conditions: absorbance 615 nm, about 18 h, stronger effect = higher value; note: test concentration not given here
RESULT_TYPE: inhibition (%)
# number only, unit % dropped from output

Which inhibition value belongs to O=C(NCCc1ccccc1)C1CCCN(S(=O)(=O)c2cccs2)C1 (configuration not stated) ?
1.79

Check CC(=O)OC1CSc2nc3ccccc3n2C1 (configuration not stated) too.
-8.11

Check CN1C(=O)c2oc3ccccc3c(=O)c2C1c1ccccn1 (configuration not stated) too.
-6.58

Check "CCCn1c(SCC(=O)NC(C)(C)C)nnc1C(C)C" too.
-4.32

Check "O=C(Cc1ccsc1-c1ccccc1)NO" too.
-3.82

Check "Cc1cc(C)cc(C(=O)N2CCC(C(N)=O)CC2)c1" too.
-8.78

Check CN(c1ccccc1C(=O)NCC1CCCO1)S(C)(=O)=O (configuration not stated) too.
-4.11

Check CN1CC=C2C(C#N)=C(N)C(C#N)(C#N)C(Cc3ccccc3)C2C1 (configuration not stated) too.
-8.22

Check "Cc1ccc(S(=O)(=O)NCC(=O)OCN2C(=O)c3ccccc3C2=O)cc1" too.
-2.73

Check "CCCSc1ccc2nc(NC(=O)OC)[nH]c2c1" too.
-1.56

Check "COc1ccc(C(=O)Nc2ccc(Cl)c(Cl)c2)c(OC)n1" too.
-8.53

Check COc1cccc(NC(=O)N(Cc2ccco2)C(C)c2cccs2)c1 (configuration not stated) too.
-0.52
